Measured Activity by item
- Test system: Rattus norvegicus
- Assay Procedure: Toxicity in anaesthetized-Wistar rat assessed as P-Q ECG interval at 40 mg/kg, ip after 45 mins (reference value: 52.5 +/- 0.780 ms)
- Format: organism-based
- Parameters: dose 40 mg/kg, route intraperitoneal
- Run Parameters: in vivo, 0.75 h
Output should be the measured figure followed by the unit it is expressed in.

Reference set (3 entries):
O=C1/C(=C\c2ccccc2)S/C(=N\c2ccccc2)N1CC(O)CN(c1ccccc1)c1ccccc1 (centres undefined) | 53.4 min
CCN(CC)CC(O)CN1C(=O)/C(=C\c2ccccc2)S/C1=N\c1ccccc1 (centres undefined) | 54.2 min
CCCCN(CCCC)CC(O)CN1C(=O)/C(=C\c2ccccc2)S/C1=N\c1ccccc1 (centres undefined) | 57.3 min

INPUT: Specify reported Activity for the compound shown: CC(C)N1CCN(CC(O)CN2C(=O)/C(=C\c3ccccc3)S/C2=N\c2ccccc2)CC1 (centres undefined)
OUTPUT: 55.2 min

INPUT: Specify reported Activity for the compound shown: O=C1/C(=C\c2ccccc2)S/C(=N\c2ccccc2)N1CC(O)CN1CCOCC1 (centres undefined)
OUTPUT: 51.3 min

INPUT: Specify reported Activity for the compound shown: O=C1/C(=C\c2ccccc2)S/C(=N\c2ccccc2)N1CC(O)CN1CCNCC1 (centres undefined)
OUTPUT: 56.9 min

INPUT: Specify reported Activity for the compound shown: CCCN(CCC)CC(O)CN1C(=O)/C(=C\c2ccccc2)S/C1=N\c1ccccc1 (centres undefined)
OUTPUT: 52.4 min

INPUT: Specify reported Activity for the compound shown: O=C1/C(=C\c2ccccc2)S/C(=N\c2ccccc2)N1CC(O)CN1CCN(c2ccccc2)CC1 (centres undefined)
OUTPUT: 53.9 min

INPUT: Specify reported Activity for the compound shown: O=C1/C(=C\c2ccccc2)S/C(=N\c2ccccc2)N1CC(O)CN1CCC(C(O)(c2ccccc2)c2ccccc2)CC1 (centres undefined)
OUTPUT: 52.4 min
